The measurements presented in this section are drawn from ChEMBL document CHEMBL1157406.

# System: L5178Y
# assay procedure: Cytotoxicity against mouse L5178Y cells by MTT assay
# Assay type: functional, cell-based
Quick rule for you: EC50 under 7 µg/mL gets Criterion met, anything else gets Criterion not met.

INSERT INTO measurements (compound, discrete_label) VALUES
  ('COc1cc(O)c2c(=O)oc3cc(O)cc(C)c3c2c1', 'Criterion not met'),
  ('Cc1cc(O)cc2oc(=O)c3c(O)cc(O)cc3c12 [ALTERNARIOL]', 'Criterion met'),
  ('Cc1cc(O)cc2oc(=O)c3c(O)cc(OS(=O)(=O)O)cc3c12', 'Criterion met'),
  ('Cc1cc(O)c(O)cc1-c1cc(O)cc(O)c1C(=O)O', 'Criterion met');

###

# target system: Aurora kinase B (Homo sapiens, UniProt Q96GD4)
# Sequence (Q96GD4 whole entry): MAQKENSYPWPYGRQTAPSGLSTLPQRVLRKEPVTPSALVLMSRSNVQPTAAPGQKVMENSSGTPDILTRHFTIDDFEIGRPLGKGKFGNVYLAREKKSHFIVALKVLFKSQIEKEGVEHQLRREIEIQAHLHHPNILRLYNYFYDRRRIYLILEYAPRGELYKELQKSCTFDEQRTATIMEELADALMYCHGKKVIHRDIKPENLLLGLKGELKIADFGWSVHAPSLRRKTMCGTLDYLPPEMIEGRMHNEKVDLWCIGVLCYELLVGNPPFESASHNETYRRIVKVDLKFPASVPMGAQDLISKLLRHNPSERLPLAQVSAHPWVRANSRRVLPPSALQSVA
# assay procedure: Inhibition of recombinant Aurora B
# measurement conditions: read-out: IC50 (converted)
measured endpoint: IC50 (µM)

INSERT INTO results (structure, target_system, numeric_value) VALUES
  ('COc1cc(O)c2c(=O)oc3cc(O)cc(C)c3c2c1', 'Aurora kinase B (Homo sapiens, UniProt Q96GD4)', 4.77),
  ('COc1cc(O)c2c(=O)oc3c(O)c(O)cc(C)c3c2c1', 'Aurora kinase B (Homo sapiens, UniProt Q96GD4)', 3.82),
  ('COc1cc(O)c(C(=O)O)c(-c2cc(O)c(O)cc2C)c1', 'Aurora kinase B (Homo sapiens, UniProt Q96GD4)', 3.79),
  ('COc1cc(O)c(C(=O)O)c(C2=C(C)C[C@@H](O)C2=O)c1', 'Aurora kinase B (Homo sapiens, UniProt Q96GD4)', 10.8),
  ('Cc1cc(O)c(O)cc1-c1cc(O)cc(O)c1C(=O)O', 'Aurora kinase B (Homo sapiens, UniProt Q96GD4)', 5.43);

###

# target system: Angiopoietin-1 receptor (Homo sapiens)
# Sequence (Q02763 whole entry): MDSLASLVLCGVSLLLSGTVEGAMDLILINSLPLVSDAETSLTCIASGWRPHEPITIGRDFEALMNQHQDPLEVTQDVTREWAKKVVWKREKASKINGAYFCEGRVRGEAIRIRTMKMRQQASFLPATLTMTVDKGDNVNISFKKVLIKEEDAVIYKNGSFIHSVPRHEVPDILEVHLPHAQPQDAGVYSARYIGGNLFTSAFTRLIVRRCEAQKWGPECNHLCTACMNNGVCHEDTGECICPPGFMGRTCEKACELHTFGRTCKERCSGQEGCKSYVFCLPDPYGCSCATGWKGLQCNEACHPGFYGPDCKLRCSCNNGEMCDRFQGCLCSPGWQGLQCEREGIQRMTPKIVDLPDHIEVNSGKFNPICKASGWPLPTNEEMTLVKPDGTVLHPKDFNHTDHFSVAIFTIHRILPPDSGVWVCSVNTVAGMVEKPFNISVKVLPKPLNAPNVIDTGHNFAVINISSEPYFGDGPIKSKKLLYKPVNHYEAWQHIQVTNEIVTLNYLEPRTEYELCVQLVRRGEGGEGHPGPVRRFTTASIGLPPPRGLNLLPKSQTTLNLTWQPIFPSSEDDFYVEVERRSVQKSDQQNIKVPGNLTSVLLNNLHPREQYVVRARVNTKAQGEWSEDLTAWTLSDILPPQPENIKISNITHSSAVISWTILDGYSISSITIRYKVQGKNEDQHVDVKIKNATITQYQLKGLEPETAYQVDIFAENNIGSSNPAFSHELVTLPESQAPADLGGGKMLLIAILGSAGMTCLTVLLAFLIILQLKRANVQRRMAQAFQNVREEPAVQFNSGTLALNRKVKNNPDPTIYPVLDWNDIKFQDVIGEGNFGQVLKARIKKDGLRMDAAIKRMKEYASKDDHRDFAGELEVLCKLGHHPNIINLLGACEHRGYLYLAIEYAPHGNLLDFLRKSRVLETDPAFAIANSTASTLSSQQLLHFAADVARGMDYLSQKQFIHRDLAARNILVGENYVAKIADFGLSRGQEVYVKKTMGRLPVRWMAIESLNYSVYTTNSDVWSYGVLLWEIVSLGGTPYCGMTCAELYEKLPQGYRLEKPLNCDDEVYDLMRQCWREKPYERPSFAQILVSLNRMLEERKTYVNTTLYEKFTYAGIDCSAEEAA
# assay procedure: Inhibition of recombinant TIE2
# measurement conditions: read-out: IC50 (converted)
# IC50 per record follows
measured endpoint: IC50 (µM)

INSERT INTO assay_data (structure, unit_info, numeric_value) VALUES
  ('COc1cc(O)c2c(=O)oc3c(O)c(O)cc(C)c3c2c1', 'µM', 4.86),
  ('Cc1cc(O)c(O)cc1-c1cc(O)cc(O)c1C(=O)O', 'µM', 13.8),
  ('COc1cc(O)c(C(=O)O)c(-c2cc(O)c(O)cc2C)c1', 'µM', 33.8),
  ('Cc1cc(O)cc2oc(=O)c3c(O)cc(OS(=O)(=O)O)cc3c12', 'µM', 20.1),
  ('Cc1cc(O)cc2oc(=O)c3c(O)cc(O)cc3c12', 'µM', 27.1),
  ('COc1cc(O)c2c(=O)oc3cc(O)cc(C)c3c2c1', 'µM', 12.9),
  ('O=C1C[C@H](O)[C@@H]2c3c(ccc(O)c31)-c1ccc(O)c3c1[C@@]2(O)CCC3=O', 'µM', 25);

###

# target system: Serine/threonine-protein kinase PLK4 (Homo sapiens)
# Sequence (O00444 whole entry): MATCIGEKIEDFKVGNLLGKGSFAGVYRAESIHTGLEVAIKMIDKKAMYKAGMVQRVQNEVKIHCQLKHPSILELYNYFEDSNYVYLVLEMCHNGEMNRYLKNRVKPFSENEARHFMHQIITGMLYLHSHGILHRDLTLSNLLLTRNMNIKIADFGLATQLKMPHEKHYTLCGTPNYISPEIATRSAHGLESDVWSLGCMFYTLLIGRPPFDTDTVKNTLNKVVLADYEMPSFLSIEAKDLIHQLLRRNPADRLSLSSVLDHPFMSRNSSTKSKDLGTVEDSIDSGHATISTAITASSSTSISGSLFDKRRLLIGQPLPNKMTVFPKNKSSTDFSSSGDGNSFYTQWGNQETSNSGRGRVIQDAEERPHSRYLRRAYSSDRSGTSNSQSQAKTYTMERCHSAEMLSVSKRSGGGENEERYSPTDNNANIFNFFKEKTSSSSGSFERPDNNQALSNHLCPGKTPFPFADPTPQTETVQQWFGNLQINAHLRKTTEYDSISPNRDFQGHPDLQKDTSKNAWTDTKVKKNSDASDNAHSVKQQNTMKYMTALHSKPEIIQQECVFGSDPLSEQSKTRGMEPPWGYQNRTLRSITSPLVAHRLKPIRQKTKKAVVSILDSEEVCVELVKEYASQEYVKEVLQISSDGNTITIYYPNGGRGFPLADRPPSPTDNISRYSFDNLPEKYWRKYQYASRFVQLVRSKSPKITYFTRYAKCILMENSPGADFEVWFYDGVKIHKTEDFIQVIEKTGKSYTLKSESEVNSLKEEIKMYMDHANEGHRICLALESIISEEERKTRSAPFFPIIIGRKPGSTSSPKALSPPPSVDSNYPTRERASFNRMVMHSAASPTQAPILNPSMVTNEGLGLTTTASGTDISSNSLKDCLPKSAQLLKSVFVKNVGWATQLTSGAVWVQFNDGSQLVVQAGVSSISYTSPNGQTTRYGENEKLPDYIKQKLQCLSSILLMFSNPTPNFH
# assay procedure: Inhibition of recombinant SAK
# measurement conditions: read-out: IC50 (converted)
measured endpoint: IC50 (µM)

INSERT INTO results (molecule, unit_info, numeric_value) VALUES
  ('COc1cc(O)c(C(=O)O)c(C2=C(C)C[C@@H](O)C2=O)c1 [ALTERNARIENONIC ACID]', 'µM', 8.98),
  ('Cc1cc(O)c(O)cc1-c1cc(O)cc(O)c1C(=O)O', 'µM', 6.15),
  ('O=C1C[C@H](O)[C@@H]2c3c(ccc(O)c31)-c1ccc(O)c3c1[C@@]2(O)CCC3=O [ALTERTOXIN I]', 'µM', 4.82),
  ('COc1cc(O)c2c(=O)oc3cc(O)cc(C)c3c2c1', 'µM', 9.18),
  ('COc1cc(O)c(C(=O)O)c(-c2cc(O)c(O)cc2C)c1 [ALTENUSIN]', 'µM', 11);
